Values compiled from PubChem BioAssay (EPA / NIEHS).

Test: BSK_3C_VCAM1: BioMAP Diversity Plus: 3C Assay for Vascular cell adhesion molecule 1 (VCAM1) Biomarker Activity (AID 2282999)
Conditions: BioMAP 3C HUVEC, VCAM1 ELISA, cytokine-stimulated; actives raise or lower the signal
Calls of active or inactive are those of the source. The calls were made as follows: active = hit-call score of the fitted dose curve at least 0.9, where 1 is the maximum; inactive = score below 0.9.
assayReadout: AC50

INSERT INTO measurements (molecule, reported) VALUES
  ('COCCO', 'inactive'),
  ('CCCCCOC(=O)COc1cc(N2C(=O)C3=C(CCCC3)C2=O)c(F)cc1Cl', '26.5 µM (active)'),
  ('C=CCOC(Cn1ccnc1)c1ccc(Cl)cc1Cl (centres undefined)', 'inactive'),
  ('CCOC(=O)C(C)Oc1ccc(Oc2nc3ccc(Cl)cc3o2)cc1 (centres undefined)', 'inactive');

====

Read-out: Interleukin 6 Receptor (IL6R), IL6R (gene 3570)
Test: LTEA_HepaRG_IL6R: Life Technologies and Expression Analysis (LTEA) Assay for Interleukin 6 Receptor (IL6R) using HepaRG (AID 2283510)
Details: mRNA level, 48 h; actives raise or lower the signal
The source made the active and inactive calls. Rule for the calls: active = hit-call score of the fitted dose curve at least 0.9, where 1 is the maximum; inactive = score below 0.9.
Classes used: active, inactive

INSERT INTO results (compound, answerlabel) VALUES
  ('CCOC(=O)NCCOc1ccc(Oc2ccccc2)cc1', 'active'),
  ('O=C(c1ccccc1)C1CCCCC1', 'inactive'),
  ('S=C([S-])NCCNC(=S)[S-].[Mn+2]', 'active'),
  ('CCSC(=O)N(CC(C)C)CC(C)C', 'inactive'),
  ('c1ccc(Nc2ccccc2)cc1', 'inactive'),
  ('C[C@]12CC[C@@H]3c4ccc(O)cc4C[C@@H](CCCCCCCCCS(=O)CCCC(F)(F)C(F)(F)F)[C@H]3[C@@H]1CC[C@@H]2O (stereo not given in full)', 'active'),
  ('CC(=O)[C@H]1CC[C@H]2[C@@H]3CCC4=CC(=O)CC[C@]4(C)[C@H]3CC[C@]12C', 'active'),
  ('CC(C)CCCCCCc1ccc(O)cc1', 'inactive'),
  ('CCCOC(=O)c1ccc(C(=O)OCCC)nc1', 'inactive'),
  ('CCOC(=O)c1ccc(O)cc1', 'inactive');

====

Read-out: Intercellular Adhesion Molecule 1 (ICAM1), ICAM1 (gene 3383)
Assay: LTEA_HepaRG_ICAM1: Life Technologies and Expression Analysis (LTEA) Assay for Intercellular Adhesion Molecule 1 (ICAM1) using HepaRG (AID 2283507)
Conditions: mRNA level, 48 h; actives raise or lower the signal
Protocol: LTEA_HepaRG is a cell based, multiplexed-readout assay that uses HepaRG, a human liver cell line, with measurements taken at 48 hours after chemical dosing on a 96-well plate.LTEA_HepaRG_ICAM1 is one of 102 assay component(s) measured in the LTEA HepaRG cell culture assay. It is a marker of Fibrosis.Data from the assay component LTEA_HepaRG_ICAM1 was analyzed into 1 endpoint. […]
Activity calls are given as the source filed them. How the source made its calls: active means hit-call score of the fitted dose curve at least 0.9, where 1 is the maximum; inactive means score below 0.9.
Classes used: Y = active, N = inactive

INSERT INTO results (compound, answerlabel) VALUES
  ('COCCO', 'N'),
  ('N#CSCSc1nc2ccccc2s1', 'N'),
  ('c1ccc(Nc2ccccc2)cc1', 'N'),
  ('CCN(CC)C(=O)c1cccc(C)c1', 'N'),
  ('c1ccc2[nH]c(-c3cscn3)nc2c1', 'N'),
  ('C#CCOC(=O)[C@@H](C)Oc1ccc(Oc2ncc(Cl)cc2F)cc1', 'N'),
  ('N[C@@H](Cc1cc(I)c(Oc2ccc(O)c(I)c2)c(I)c1)C(=O)O', 'Y'),
  ('CCCCC(CC)CN1C(=O)C2C3C=CC(C3)C2C1=O (stereo not given)', 'N'),
  ('Oc1ccc(C(c2ccc(O)cc2)C(Cl)(Cl)Cl)cc1', 'Y'),
  ('O=C(O)C1(C(=O)Nc2ccc(Cl)cc2Cl)CC1', 'N'),
  ('CCCCOCCOCCOCc1cc2c(cc1CCC)OCO2', 'N'),
  ('CCOC(=O)COc1cc(-n2ncc(C(F)(F)F)c(C)c2=O)c(F)cc1Cl', 'N'),
  ('CSC(=O)c1cccc2nnsc12', 'N'),
  ('CCCOC(=O)NCCCN(C)C', 'N'),
  ('CCCCCOC(=O)COc1cc(N2C(=O)C3=C(CCCC3)C2=O)c(F)cc1Cl', 'N');

====

Read-out: Thrombomodulin, THBD (gene 7056)
Assay: BSK_3C_Thrombomodulin: BioMAP Diversity Plus: 3C Assay for Thrombomodulin Biomarker Activity (AID 2283029)
Details: primary human endothelial cells (HUVEC); actives raise or lower the signal
The source made the active and inactive calls. How the source made its calls: active means hit-call score of the fitted dose curve at least 0.9, where 1 is the maximum; inactive means score below 0.9.
Classes used: 1 = active, 0 = inactive

INSERT INTO results (smilesrepresentation, answerlabel) VALUES
  ('O=C(c1ccc(O)cc1O)c1ccc(O)cc1O', 0),
  ('CCCCCOC(=O)COc1cc(N2C(=O)C3=C(CCCC3)C2=O)c(F)cc1Cl', 0),
  ('CC(=O)[C@H]1CC[C@H]2[C@@H]3CCC4=CC(=O)CC[C@]4(C)[C@H]3CC[C@]12C', 0),
  ('Oc1ccc(C(c2ccc(O)cc2)C(Cl)(Cl)Cl)cc1', 1),
  ('O=C(O)c1ccccc1', 0);

====

Assay: ATG_CMV_CIS: Attagene CIS-FACTORIAL HepG2 Assay for human CMV (Internal Marker) (AID 2282928);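 also: endpoint acts as a background internal control marker rather than a target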
Conditions: HepG2 CMV promoter reporter, transcription factor profiling; actives raise or lower the signal
Activity calls are given as the source filed them. Rule for the calls: active = hit-call score of the fitted dose curve at least 0.9, where 1 is the maximum; inactive = score below 0.9.
Classes used: true for active, false for inactive

INSERT INTO assay_data (compound, answerlabel) VALUES
  ('CCCCCOC(=O)COc1cc(N2C(=O)C3=C(CCCC3)C2=O)c(F)cc1Cl', 'false'),
  ('O=C(O)C1(C(=O)Nc2ccc(Cl)cc2Cl)CC1', 'false'),
  ('CCCCC(CC)CN1C(=O)C2C3C=CC(C3)C2C1=O (centres undefined)', 'false'),
  ('N[C@@H](Cc1cc(I)c(Oc2ccc(O)c(I)c2)c(I)c1)C(=O)O', 'false'),
  ('CCCN(CCC)c1c([N+](=O)[O-])cc(C(F)(F)F)c(N)c1[N+](=O)[O-]', 'true'),
  ('CCOC(=O)C(C)Oc1ccc(Oc2nc3ccc(Cl)cc3o2)cc1 (centres undefined)', 'false'),
  ('CCOC(=O)C(C)Oc1ccc(Oc2cnc3cc(Cl)ccc3n2)cc1 (centres undefined)', 'false'),
  ('COc1c(Cl)ccc(Cl)c1C(=O)O', 'false'),
  ('C[C@]12C[C@H](O)[C@H]3[C@@H](CCC4=CC(=O)CC[C@@]43C)[C@@H]1CC[C@@H]2C(=O)CO', 'false'),
  ('CC1(C)C(C=C(Cl)Cl)C1C(=O)OCc1cccc(Oc2ccccc2)c1 (centres undefined)', 'false'),
  ('COC(=O)CSc1cc(N=c2sc(=O)n3n2CCCC3)c(F)cc1Cl', 'false'),
  ('Oc1ccc(C(c2ccc(O)cc2)C(Cl)(Cl)Cl)cc1', 'false'),
  ('C[C@]12CC[C@@H]3c4ccc(O)cc4C[C@@H](CCCCCCCCCS(=O)CCCC(F)(F)C(F)(F)F)[C@H]3[C@@H]1CC[C@@H]2O (some centres undefined)', 'false'),
  ('S=C([S-])NCCNC(=S)[S-].[Mn+2]', 'false');

====

Read-out: ABC Transporter (ABCB11), ABCB11 (gene 8647)
Test: LTEA_HepaRG_ABCB11: Life Technologies and Expression Analysis (LTEA) Assay for ABC Transporter (ABCB11) using HepaRG (AID 2283463)
Details: mRNA level, 48 h; actives raise or lower the signal
Active and inactive are the calls of the source. The calls were made as follows: active = hit-call score of the fitted dose curve at least 0.9, where 1 is the maximum; inactive = score below 0.9.
Classes used: 1.0 for active, 0.0 for inactive

INSERT INTO assay_data (compound, answerlabel) VALUES
  ('CCCN(CCC)C(=O)SCC', 0.0),
  ('C[C@]12CC[C@@H]3c4ccc(O)cc4C[C@@H](CCCCCCCCCS(=O)CCCC(F)(F)C(F)(F)F)[C@H]3[C@@H]1CC[C@@H]2O (some centres undefined)', 1.0),
  ('CC1(C)C(C=C(Cl)Cl)C1C(=O)OCc1cccc(Oc2ccccc2)c1 (centres undefined)', 0.0),
  ('OB(O)O', 0.0),
  ('CC(=O)[C@H]1CC[C@H]2[C@@H]3CCC4=CC(=O)CC[C@]4(C)[C@H]3CC[C@]12C', 1.0),
  ('COC(=O)CSc1cc(N=c2sc(=O)n3n2CCCC3)c(F)cc1Cl', 0.0),
  ('CCNc1nc(N)nc(Cl)n1', 0.0),
  ('COc1c(Cl)ccc(Cl)c1C(=O)O', 0.0),
  ('O=C(O)c1ccccc1', 0.0),
  ('CCOC(=O)COc1cc(-n2ncc(C(F)(F)F)c(C)c2=O)c(F)cc1Cl', 0.0),
  ('CCCCCOC(=O)COc1cc(N2C(=O)C3=C(CCCC3)C2=O)c(F)cc1Cl', 0.0),
  ('CCOC(=O)c1ccc(O)cc1', 0.0),
  ('c1ccc(Nc2ccccc2)cc1', 0.0),
  ('CCCCOC(=O)C(C)Oc1ccc(Oc2ccc(C(F)(F)F)cn2)cc1 (centres undefined)', 0.0),
  ('COC(=O)c1ccc(I)cc1S(=O)(=O)NC(=O)Nc1nc(C)nc(OC)n1', 0.0),
  ('CCCCCCC(C)OC(=O)COc1nc(F)c(Cl)c(N)c1Cl (centres undefined)', 0.0),
  ('O=C(c1ccc(O)cc1O)c1ccc(O)cc1O', 0.0),
  ('N[C@@H](Cc1cc(I)c(Oc2ccc(O)c(I)c2)c(I)c1)C(=O)O', 1.0),
  ('CCSC(=O)N(CC(C)C)CC(C)C', 0.0);
